- testTarget: Alpha-1B adrenergic receptor (Rattus norvegicus, UniProt P15823)
- Sequence (P15823 whole entry): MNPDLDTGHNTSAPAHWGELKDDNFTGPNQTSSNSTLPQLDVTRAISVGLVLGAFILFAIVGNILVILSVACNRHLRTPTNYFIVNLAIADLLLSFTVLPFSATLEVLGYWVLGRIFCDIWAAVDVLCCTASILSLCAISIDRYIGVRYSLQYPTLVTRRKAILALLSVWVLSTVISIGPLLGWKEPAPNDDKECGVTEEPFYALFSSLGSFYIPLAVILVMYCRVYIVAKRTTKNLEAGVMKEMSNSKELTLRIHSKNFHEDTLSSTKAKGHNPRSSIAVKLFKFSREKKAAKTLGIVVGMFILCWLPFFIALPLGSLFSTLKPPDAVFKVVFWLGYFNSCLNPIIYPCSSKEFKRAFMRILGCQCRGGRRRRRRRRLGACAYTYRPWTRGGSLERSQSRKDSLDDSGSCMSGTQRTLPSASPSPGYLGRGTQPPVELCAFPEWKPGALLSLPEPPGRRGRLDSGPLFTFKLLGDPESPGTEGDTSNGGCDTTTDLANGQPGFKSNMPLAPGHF
- procedureText: DRUGMATRIX: Alpha-1B adrenergic receptor radioligand binding (ligand: prazosin)
- Type: cell membranes, Wistar, Liver, Membrane
- protocolConditions: Not Active = under 50% inhibition at 10 µM
measuredMetric: IC50

* Nc1nc(F)nc2c1ncn2[C@@H]1O[C@H](CO)[C@@H](O)[C@@H]1O [FLUDARABINE] | Not Active
* C#C[C@]1(O)CC[C@H]2[C@@H]3CCC4=CC(=O)CC[C@@H]4[C@H]3CC[C@@]21C [NORETHINDRONE] | Not Active
* OC[C@H]1O[C@@H]2O[C@H]3[C@H](O)[C@@H](O)[C@@H](O[C@H]4[C@H](O)[C@@H](O)[C@@H](O[C@H]5[C@H](O)[C@@H](O)[C@@H](O[C@H]6[C@H](O)[C@@H](O)[C@@H](O[C@H]7[C@H](O)[C@@H](O)[C@@H](O[C@H]1[C@H](O)[C@H]2O)O[C@@H]7CO)O[C@@H]6CO)O[C@@H]5CO)O[C@@H]4CO)O[C@@H]3CO [ALFADEX] | Not Active

* * *

- testTarget: UniProtKB Q01959
- Sequence (Q01959 whole entry): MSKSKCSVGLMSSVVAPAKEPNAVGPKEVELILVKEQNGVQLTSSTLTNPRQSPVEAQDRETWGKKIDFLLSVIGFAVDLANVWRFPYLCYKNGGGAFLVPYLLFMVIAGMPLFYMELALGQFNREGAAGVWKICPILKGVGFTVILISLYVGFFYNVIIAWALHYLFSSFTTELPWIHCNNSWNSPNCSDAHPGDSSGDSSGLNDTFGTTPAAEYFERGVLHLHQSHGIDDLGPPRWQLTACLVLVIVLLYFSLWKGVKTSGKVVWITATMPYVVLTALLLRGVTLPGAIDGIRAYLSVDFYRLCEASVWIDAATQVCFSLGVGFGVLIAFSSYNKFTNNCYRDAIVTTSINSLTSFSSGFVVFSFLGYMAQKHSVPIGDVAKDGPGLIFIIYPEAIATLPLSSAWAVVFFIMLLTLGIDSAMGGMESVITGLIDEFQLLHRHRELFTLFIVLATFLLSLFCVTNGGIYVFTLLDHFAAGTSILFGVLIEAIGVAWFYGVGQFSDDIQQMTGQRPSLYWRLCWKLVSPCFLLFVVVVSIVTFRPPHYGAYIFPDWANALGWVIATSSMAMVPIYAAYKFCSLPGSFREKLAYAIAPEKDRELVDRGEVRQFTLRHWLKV
- procedureText: DRUGMATRIX: Dopamine Transporter radioligand binding (ligand: [125I] RTI-55)
- Type: cell membranes, CHO-K1, Membrane
- protocolConditions: cho-k1; Not Active = under 50% inhibition at 10 µM
measuredMetric: IC50

- CC(C)(C#N)c1cc(Cn2cncn2)cc(C(C)(C)C#N)c1: Not Active
- CCN(CC)CCNC(=O)c1cc(Cl)c(N)cc1OC [METOCLOPRAMIDE]: Not Active
- CC(C)(C)NC[C@H](O)COc1cccc2c1CCCC2=O: Not Active
- CC1(COc2ccc(CC3SC(=O)NC3=O)cc2)CCCCC1 (stereo not given): Not Active
- CC(N)C12CC3CC(CC(C3)C1)C2 (stereo not given): Not Active

* * *

- testTarget: Interstitial collagenase (Homo sapiens);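 further: MMP-1 enzyme inhibition assay using a peptide substrate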; further: in other assays of this panel Not Active means under 50% inhibition at 10 µM
- Sequence (P03956 whole entry): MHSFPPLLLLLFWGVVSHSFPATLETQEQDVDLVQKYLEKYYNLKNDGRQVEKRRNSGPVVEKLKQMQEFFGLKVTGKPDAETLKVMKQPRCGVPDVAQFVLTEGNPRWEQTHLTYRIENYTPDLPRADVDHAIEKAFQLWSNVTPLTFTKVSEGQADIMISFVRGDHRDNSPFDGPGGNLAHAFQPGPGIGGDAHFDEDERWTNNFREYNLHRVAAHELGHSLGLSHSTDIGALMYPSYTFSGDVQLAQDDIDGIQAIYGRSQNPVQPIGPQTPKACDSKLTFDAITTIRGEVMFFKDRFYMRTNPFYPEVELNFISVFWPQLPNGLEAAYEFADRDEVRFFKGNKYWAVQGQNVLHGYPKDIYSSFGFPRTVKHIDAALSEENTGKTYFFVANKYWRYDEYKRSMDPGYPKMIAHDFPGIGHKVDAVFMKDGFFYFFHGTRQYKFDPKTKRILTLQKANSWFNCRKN
- procedureText: biochemical
- Type: tissue-based, Rheumatoid synovial fibroblasts
- protocolConditions: read-out: IC50
pIC50: −log10 of the molar value.
measuredMetric: pIC50

• O=C(O)c1cc(/N=N/c2ccc(S(=O)(=O)Nc3ccccn3)cc2)ccc1O = 4.63

* * *

- procedureText: DRUGMATRIX: Calcium Channel Type L, Phenylalkylamine radioligand binding (ligand: [3H] (-)-Desmethoxyverapamil (D-888))
- Format: cell membranes, Rattus norvegicus, Wistar, Brain, Membrane
- protocolConditions: Not Active = under 50% inhibition at 10 µM
measuredMetric: Ki

* O=C(O)CO [GLYCOLIC ACID] | Not Active
* Nc1nc(N)c2nc(CNc3ccc(C(=O)N[C@@H](CCC(=O)O)C(=O)O)cc3)cnc2n1 [AMINOPTERIN] | Not Active
* CCO [ALCOHOL] | Not Active
* COc1cc(/C=C/C(=O)O)ccc1O [FERULATE] | Not Active
* O=C1CN(/N=C/c2ccc([N+](=O)[O-])o2)C(=O)N1 [NITROFURANTOIN] | Not Active
* Cl.NC[C@H]1CC[C@H](C(=O)Oc2ccc(CCC(=O)O)cc2)CC1 [CETRAXATE HYDROCHLORIDE] | Not Active
* CCN(CCO)CCCC(C)Nc1ccnc2cc(Cl)ccc12 (stereo not drawn) [HYDROXYCHLOROQUINE] | Not Active
* CC[C@H]1OC(=O)[C@H](C)[C@@H](O[C@H]2C[C@@](C)(OC)[C@@H](O)[C@H](C)O2)[C@H](C)[C@@H](O[C@@H]2O[C@H](C)C[C@H](N(C)C)[C@H]2O)[C@](C)(O)C[C@@H](C)C(=O)[C@H](C)[C@@H](O)[C@]1(C)O [ERYTHROMYCIN] | Not Active

* * *

- testTarget: Glucocorticoid receptor (Homo sapiens, UniProt P04150); further: in other assays of this panel Not Active means under 50% inhibition at 10 µM
- Sequence (P04150 whole entry): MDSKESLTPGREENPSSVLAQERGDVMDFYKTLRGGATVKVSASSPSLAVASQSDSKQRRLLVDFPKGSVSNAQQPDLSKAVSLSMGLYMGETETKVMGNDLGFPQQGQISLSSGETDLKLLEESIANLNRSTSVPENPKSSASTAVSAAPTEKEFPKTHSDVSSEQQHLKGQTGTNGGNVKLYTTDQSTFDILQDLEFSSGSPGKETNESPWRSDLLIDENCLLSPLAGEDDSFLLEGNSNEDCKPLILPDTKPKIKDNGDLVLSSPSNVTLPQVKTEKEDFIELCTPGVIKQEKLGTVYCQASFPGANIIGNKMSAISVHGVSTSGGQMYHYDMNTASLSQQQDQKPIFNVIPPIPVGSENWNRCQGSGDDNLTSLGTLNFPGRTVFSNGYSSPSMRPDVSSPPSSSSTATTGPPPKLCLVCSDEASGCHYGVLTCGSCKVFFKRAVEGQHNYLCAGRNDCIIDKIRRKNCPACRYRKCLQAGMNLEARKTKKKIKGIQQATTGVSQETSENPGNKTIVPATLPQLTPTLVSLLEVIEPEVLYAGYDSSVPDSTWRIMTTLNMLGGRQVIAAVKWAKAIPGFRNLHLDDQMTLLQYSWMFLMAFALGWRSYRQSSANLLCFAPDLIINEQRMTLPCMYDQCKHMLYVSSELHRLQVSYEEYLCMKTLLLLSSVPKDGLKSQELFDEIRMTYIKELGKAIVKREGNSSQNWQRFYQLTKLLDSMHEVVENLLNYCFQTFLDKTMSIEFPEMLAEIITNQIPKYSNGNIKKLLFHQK
- protocolConditions: hela s3
measuredMetric: IC50

* CN(C)CCC=C1c2ccccc2COc2ccccc21 [DOXEPIN] | Not Active
* COC(=O)Nc1nc2ccc(Sc3ccccc3)cc2[nH]1 [FENBENDAZOLE] | Not Active
* Cc1cc(C(C)(C)C)c(O)c(C)c1CC1=NCCN1 [OXYMETAZOLINE] | Not Active
* CC(C)(C#N)c1cc(Cn2cncn2)cc(C(C)(C)C#N)c1 [ANASTROZOLE] | Not Active
* C=CCc1ccc2c(c1)OCO2 [SAFROLE] | Not Active
* CC(N)C12CC3CC(CC(C3)C1)C2 (stereo unspecified) [RIMANTADINE] | Not Active
* Cc1ccc(S(=O)(=O)NC(=O)NN2CCCCCC2)cc1 [TOLAZAMIDE] | Not Active
* NC(=O)NC(=O)Cc1ccccc1 [PHENACEMIDE] | Not Active
* O=C(O)c1cc(/N=N/c2ccc(S(=O)(=O)Nc3ccccn3)cc2)ccc1O [SULFASALAZINE] | Not Active
* Nc1nc(N)c2nc(-c3ccccc3)c(N)nc2n1 | Not Active
* Nc1ccc(Cc2ccc(N)cc2)cc1 | Not Active

* * *

# Ki per entry
- procedureText: DRUGMATRIX: Sigma2 radioligand binding (ligand: [3H] Ifenprodil)
- Assay type: cell membranes, Rattus norvegicus, Wistar, Brain, Membrane
- protocolConditions: Not Active = under 50% inhibition at 10 µM; read-out: Ki
measuredMetric: Ki (µM)

* CCN(CC)C(=S)SSC(=S)N(CC)CC | 46.5
* CN(Cc1cc(Br)cc(Br)c1N)C1CCCCC1 [BROMHEXINE] | 0.036

* * *

- testTarget: Sigma non-opioid intracellular receptor 1 (Homo sapiens)
- Sequence (Q99720 whole entry): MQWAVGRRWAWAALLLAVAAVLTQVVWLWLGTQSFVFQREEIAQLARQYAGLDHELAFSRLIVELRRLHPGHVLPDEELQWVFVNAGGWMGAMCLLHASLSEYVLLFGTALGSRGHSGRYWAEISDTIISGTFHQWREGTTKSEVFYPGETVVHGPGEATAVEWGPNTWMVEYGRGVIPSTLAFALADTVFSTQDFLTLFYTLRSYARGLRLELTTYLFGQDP
- procedureText: DRUGMATRIX: Sigma1 radioligand binding (ligand: [3H] Haloperidol)
- Type: cell membranes, Jurkat, Membrane
- protocolConditions: jurkat; Not Active = under 50% inhibition at 10 µM
measuredMetric: IC50

* O=C(OC[C@H]1O[C@@H](OC(=O)c2cc(O)c(O)c(OC(=O)c3cc(O)c(O)c(O)c3)c2)[C@H](OC(=O)c2cc(O)c(O)c(OC(=O)c3cc(O)c(O)c(O)c3)c2)[C@@H](OC(=O)c2cc(O)c(O)c(OC(=O)c3cc(O)c(O)c(O)c3)c2)[C@@H]1OC(=O)c1cc(O)c(O)c(OC(=O)c2cc(O)c(O)c(O)c2)c1)c1cc(O)c(O)c(OC(=O)c2cc(O)c(O)c(O)c2)c1 | Not Active
* COc1ccccc1OCCNCC(O)COc1cccc2[nH]c3ccccc3c12 (stereo not drawn) | Not Active
* CCN1C[C@]2(COC)[C@H](O)C[C@H](OC)[C@@]34[C@@H]5C[C@@]6(O)[C@H](OC(=O)c7ccccc7)[C@@H]5[C@@](OC(C)=O)([C@@H]([C@H](OC)[C@H]23)[C@@H]14)[C@@H](O)[C@@H]6OC | Not Active

* * *

- procedureText: DRUGMATRIX: Phosphodiesterase PDE4 enzyme inhibition (substrate: [3H]cAMP + cAMP)
- protocolConditions: u-937; Not Active = under 50% inhibition at 10 µM
measuredMetric: Ki

* Nc1nc(N)c2nc(-c3ccccc3)c(N)nc2n1 | Not Active
* C[C@]12CCC(=O)C[C@@H]1CC[C@@H]1[C@@H]2CC[C@]2(C)[C@@H](O)CC[C@@H]12 | Not Active
* C[C@H]1C[C@H]2[C@@H]3CCC4=CC(=O)C=C[C@]4(C)[C@@]3(F)[C@@H](O)C[C@]2(C)[C@@]1(O)C(=O)CO | Not Active
* CCOC(=O)C1=C(C)NC(C)=C(C(=O)OCC)C1c1ccccc1/C=C/C(=O)OC(C)(C)C | Not Active
* C[C@H](C(=O)O)c1ccc2oc(-c3ccc(F)cc3)nc2c1 | Not Active
* O=C1c2ccccc2C(=O)C1c1ccccc1 | Not Active
* CC#C[C@]1(O)CC[C@H]2[C@@H]3CCC4=CC(=O)CCC4=C3[C@@H](c3ccc(N(C)C)cc3)C[C@@]21C | Not Active
* Cc1ccnc2c1NC(=O)c1cccnc1N2C1CC1 | Not Active
* C[C@]12CC[C@@H](O)C[C@@H]1CC[C@@H]1[C@@H]2CC[C@]2(C)C(=O)CC[C@@H]12 | Not Active
* Cl.NC[C@H]1CC[C@H](C(=O)Oc2ccc(CCC(=O)O)cc2)CC1 [CETRAXATE HYDROCHLORIDE] | Not Active
* CC(C)(c1ccc(O)cc1)c1ccc(O)cc1 | Not Active
* OC[C@@H](O)[C@@H](O)[C@H](O)[C@H](O)CO | Not Active
* Cc1c(N)nc([C@H](CC(N)=O)NC[C@H](N)C(N)=O)nc1C(=O)N[C@H](C(=O)N[C@H](C)[C@@H](O)[C@H](C)C(=O)N[C@H](C(=O)NCCc1nc(-c2nc(C(=O)NCCC[S+](C)C)cs2)cs1)[C@@H](C)O)[C@@H](O[C@@H]1O[C@@H](CO)[C@@H](O)[C@H](O)[C@@H]1O[C@H]1O[C@H](CO)[C@@H](O)[C@H](OC(N)=O)[C@@H]1O)c1c[nH]cn1.[Br-] | Not Active
* CCCCCCNC(=O)n1cc(F)c(=O)[nH]c1=O | Not Active
* O=C1CN(/N=C/c2ccc([N+](=O)[O-])o2)C(=O)N1 | Not Active
* CNC[C@H](O)c1ccc(O)c(O)c1 [EPINEPHRINE] | Not Active
